Test system: FXR:RXRa (NR concentration 270 nM, RXRa partner concentration 90 nM)
Assay: PBM binding z-score (relative to random genomic background probes); higher = stronger binding; sequences stand for … in GC…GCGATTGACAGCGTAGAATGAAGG
valueKind: PBM binding z-score
No unit in the answer, please; the number alone is enough.

Quick one: PBM binding z-score for `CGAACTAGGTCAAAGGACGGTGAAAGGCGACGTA` ?
4.04

Quick one: PBM binding z-score for `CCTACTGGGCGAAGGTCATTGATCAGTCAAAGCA` ?
2.76

Quick one: PBM binding z-score for `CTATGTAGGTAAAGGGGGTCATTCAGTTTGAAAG` ?
4.07

Quick one: PBM binding z-score for `CTTAGTTGGTCAGGAGGTCACACACCGGATATGA` ?
3.89

Quick one: PBM binding z-score for `CGAACTAGGTCAAAGGTCAGTGAAAGGCGACGTA` ?
7.45

Quick one: PBM binding z-score for `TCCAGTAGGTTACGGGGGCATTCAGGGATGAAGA` ?
3.09

Quick one: PBM binding z-score for `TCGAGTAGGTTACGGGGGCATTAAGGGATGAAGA` ?
2.01

Quick one: PBM binding z-score for `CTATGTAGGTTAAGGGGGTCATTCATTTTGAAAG` ?
4.9

Quick one: PBM binding z-score for `TCTCGGAGGACACGAAAGGTCTGAGCTCGACATC` ?
0.119

Quick one: PBM binding z-score for `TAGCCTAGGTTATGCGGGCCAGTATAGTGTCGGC` ?
-0.487

Quick one: PBM binding z-score for `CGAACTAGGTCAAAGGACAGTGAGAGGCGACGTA` ?
4.2

Quick one: PBM binding z-score for `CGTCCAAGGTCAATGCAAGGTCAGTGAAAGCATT` ?
7.23
